# credit: patent US11191850B2

# Experiment description: UV-Vis absorption and fluorescence spectroscopy
# Type: physicochemical
# Run conditions: pH 7.4 phosphate buffer, 10% DMSO; methyl ether derivatives
# reported Extinction coefficient; entries follow
Write the answer as a number in M⁻¹ cm⁻¹, unit excluded.

{"Molecule": "COC(=O)c1ccccc1C1=c2cc3c4c(c2Oc2c1ccc1cccc(OC)c21)CCC[N+]=4CCC3", "Reading": 17764}
{"Molecule": "COC(=O)c1ccccc1-c1c2ccc(=[N+](C)C)cc-2oc2c1ccc1cccc(OC)c12.[Cl-]", "Reading": 22470}

Then this molecule:
Per the records, this molecule ( COC(=O)c1ccccc1-c1c2ccc(=N)cc-2oc2c1ccc1cccc(OC)c12.O=C(O)O ) has Extinction coefficient equal to 21742
